Give IC50 for every item shown.
tested on: Aβtotal; experiment: Screening for γ-secretase-modulating activity: Aβtotal in supernatant of SKNBE2 cells carrying APP 695-wild type (Alphalisa); type: cell-based; settings: Homo sapiens, overnight incubation, cell supernatant

Recorded IC50, per entry:
COc1ccc(N2CCN(c3nc(Nc4cc(C(F)(F)F)ccc4F)n(C)n3)CC2(C)C)cc1 > 10 µM
COc1ccc(N2CCN(c3nc(Nc4cccc(F)c4C(F)(F)F)n(C)n3)CC2(C)C)cc1 > 10 µM
COc1ccc(N2CCN(c3nc(Nc4ccccc4C)n(C)n3)CC2(C)C)cc1 > 10 µM
COc1ccc(N2CCN(c3nc(Nc4ccc(F)cc4C)n(C)n3)CC2(C)C)cc1 > 10 µM
COc1ccc(N2CCN(c3nc(Nc4cc(C(F)(F)F)ccc4F)n(C)n3)CC2)cc1 > 10 µM
COc1ccc(N2CCN(c3nc(Nc4cccc(OC(F)(F)F)c4)n(C)n3)CC2(C)C)cc1 > 10 µM

Prompt: Enter IC50 (test system Aβtotal) for "Cc1cc(OC2CCN(c3nc(Nc4cc(C(F)(F)F)ccc4F)n(C)n3)CC2)ccn1"
Completion: > 10 µM

* * *

observed-property: melting point (°C)
Give bare numbers, in °C.

compound	reported-value
COc1ccc(N2CCN(c3nc(Nc4cc(C(F)(F)F)ccc4F)n(C)n3)CC2)cc1 [Compound 9]	145.4

Below is a list of compounds. For each, state its recorded melting point.
1. COc1ccc(N2CCN(c3nc(-c4ccc(F)cc4)n(C)n3)CC2)cc1 [Compound 16]
2. Cn1nc(N2CCN(c3ccncc3)CC2)nc1Nc1cc(C(F)(F)F)ccc1F [Compound 10]
3. COc1ccc(N2CCN(c3nc(Nc4ccccc4C)n(C)n3)CC2(C)C)cc1 [Compound 1]

Completion:
[191.6, 261.8, 156.8]

* * *

observed-property: melting point (°C)
Give bare numbers, in °C.

Cn1nc(N2CCN(Cc3ccncc3)CC2)nc1Nc1cc(C(F)(F)F)ccc1F 161.4
Cc1cc(OC2CCN(c3nc(Nc4cc(C(F)(F)F)ccc4F)n(C)n3)CC2)ncn1 158

Now, please, on to the next compound.
Prompt: Give me measured melting point, please, for this compound: "Cc1cc(OC2CCN(c3nc(Nc4cc(C(F)(F)F)ccc4F)n(C)n3)CC2)ccn1"
Completion: 177.4

* * *

System: Aβ42
Test: Screening for γ-secretase-modulating activity: Aβ42 in supernatant of SKNBE2 cells carrying APP 695-wild type (Alphalisa)
Assay type: cell-based
Conditions: Homo sapiens, overnight incubation, cell supernatant
Experimental: Screening was carried out using SKNBE2 cells carrying the APP 695-wild type, grown in Dulbecco's Modified Eagle's Medium/Nutrient mixture F-12 (DMEM/NUT-mix F-12) (HAM) provided by Invitrogen (cat no. 10371-029) containing 5% Serum/Fe supplemented with 1% non-essential amino acids, 1-glutamine 2 mM, Hepes 15 mM, penicillin 50 U/ml (units/ml) en streptomycin 50 µg/ml. […] Aβtotal and Aβ42 concentrations were quantified in the cell supernatant using the Aphalisa technology (Perkin Elmer). […]
Please provide measured pIC50 for the entries that follow.
Numbers only, as −log10 of the molar value.

Would you please look over these solved cases?
Cc1cc(OC2CCN(c3nc(Nc4cc(C(F)(F)F)ccc4F)n(C)n3)CC2)ccn1 6.60
COc1ccc(N2CCN(c3nc(Nc4cc(C(F)(F)F)ccc4F)n(C)n3)CC2(C)C)cc1 6.96
COc1ccc(N2CCN(c3nc(-c4ccc(F)cc4)n(C)n3)CC2)cc1 5.39

Batch: pIC50 for all items listed.
1. COc1ccc(N2CCN(c3nc(Nc4cc(C(F)(F)F)ccc4F)n(C)n3)CC2)cc1
2. Cc1cc(CC2CCN(c3nc(Nc4cc(C(F)(F)F)ccc4F)n(C)n3)CC2)ccn1

Completion:
1: 6.25; 2: 5.16

I'm hoping you can list pIC50 for every compound here, please.
1. Cn1nc(N2CCC(Oc3ccncc3)CC2)nc1Nc1cc(C(F)(F)F)ccc1F
2. COc1ccc(N2CCN(c3nc(Nc4cc(F)cc(C(F)(F)F)c4)n(C)n3)CC2(C)C)cc1

Completion:
6.14
6.85
